assay.name: recombinant UMI read abundance after kanamycin selection (control-corrected) (log10(CPM+1)); higher = more efficient recombination; extreme values may be limits of the assay; sequences stand for … in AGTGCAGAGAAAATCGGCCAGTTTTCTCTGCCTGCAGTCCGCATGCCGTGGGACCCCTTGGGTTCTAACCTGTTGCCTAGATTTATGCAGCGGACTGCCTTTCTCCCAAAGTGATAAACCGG…AGGTTGGTTTCACT; site = the 11-nt donor
Catalogue of sequences with associated recombinant UMI read abundance (log10)
measured.metric: recombinant UMI read abundance (log10)

>>> observed_measurement("GATCCAACATGGACCGGTTTTCCCGGTAATCCGTATTTGTA (site GGTCCAACTTA)")
0.021
>>> observed_measurement("CACCAGTCATGGACCGGTTTTCCCGGTAATCCGTATTTGAC (site CACCAGTCTGT)")
0.85
>>> observed_measurement("CTACGGCCATGGACCGGTTTTCCCGGTAATCCGTATTTGCC (site CTACGGCCTGG)")
0.363
>>> observed_measurement("GCGAAAACATGGACCGGTTTTCCCGGTAATCCGTATTTGCA (site GCGAAAACTCG)")
1.4
>>> observed_measurement("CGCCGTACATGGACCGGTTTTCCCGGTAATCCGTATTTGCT (site CGCCGTACTTG)")
0.00335
>>> observed_measurement("ATATCTACATGGACCGGTTTTCCCGGTAATCCGTATTTGTG (site ACATCTACTCA)")
0.246
>>> observed_measurement("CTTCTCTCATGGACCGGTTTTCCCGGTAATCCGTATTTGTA (site CTTCTCTCTCA)")
0.552
>>> observed_measurement("TATTGTTCATGGACCGGTTTTCCCGGTAATCCGTATTTGTG (site TATTGTTCTCA)")
0.00773
>>> observed_measurement("CATACAGCATGGACCGGTTTTCCCGGTAATCCGTATTTGTG (site CATACAGCTCA)")
1.18

----------
assay.name: recombinant barcode read abundance after kanamycin selection (control-corrected) (log10(CPM+1)); higher = more efficient recombination; sequences stand for … in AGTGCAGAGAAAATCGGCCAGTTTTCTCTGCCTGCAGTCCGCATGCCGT…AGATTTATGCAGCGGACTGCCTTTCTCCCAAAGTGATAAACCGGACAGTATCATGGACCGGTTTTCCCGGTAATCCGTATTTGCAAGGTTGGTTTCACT; site = the 11-nt target
measured.metric: recombinant barcode read abundance (log10)

>>> observed_measurement("CTGGCTCCTTGGGTTCTAACCTGTTGCTT (site CTGGTTCCTAG)")
0.0218
>>> observed_measurement("CTATTGTCTTGGGTTCTAACCTGTTGCGC (site CTATTGTCTCC)")
0.0404
>>> observed_measurement("CTAGATTCTTGGGTTCTAACCTGTTGCCT (site CCAGATTCTAG)")
0.116
>>> observed_measurement("GACGCCTCTTGGGTTCTAACCTGTTGCCT (site TACGCCTCTAG)")
0
>>> observed_measurement("GGGCCCGCTTGGGTTCTAACCTGTTGCCT (site GGGCCCGCTAG)")
1.84
>>> observed_measurement("TTAGTACCTTGGGTTCTAACCTGTTGCCT (site TTAGTACCTAG)")
2.55
>>> observed_measurement("GCTGCGACTTGGGTTCTAACCTGTTGCCT (site GCTGCGACTAG)")
0.972
>>> observed_measurement("CTAGCGGCTTGGGTTCTAACCTGTTGCAG (site CTAGCGGCTCT)")
2.05
>>> observed_measurement("TACTAAGCTTGGGTTCTAACCTGTTGCCT (site TACTAAGCTAA)")
0
>>> observed_measurement("TCCTATGCTTGGGTTCTAACCTGTTGCTA (site TCCTATGCTTA)")
0.0755
